Attribution: patent US20230257479A1

STUDY TARGET: T1, human 5T4ECDHis (mature protein of SEQ ID NO: 99) (human, UniProt Q13641 32-355)
T1 construct: ECD of human 5T4 (aa 1-355 of Uniprot Q13641) with C-terminal His tag; residues 1-31 are the signal peptide; also called ECD of human 5T4 with a C-terminal His tag
T1 sequence: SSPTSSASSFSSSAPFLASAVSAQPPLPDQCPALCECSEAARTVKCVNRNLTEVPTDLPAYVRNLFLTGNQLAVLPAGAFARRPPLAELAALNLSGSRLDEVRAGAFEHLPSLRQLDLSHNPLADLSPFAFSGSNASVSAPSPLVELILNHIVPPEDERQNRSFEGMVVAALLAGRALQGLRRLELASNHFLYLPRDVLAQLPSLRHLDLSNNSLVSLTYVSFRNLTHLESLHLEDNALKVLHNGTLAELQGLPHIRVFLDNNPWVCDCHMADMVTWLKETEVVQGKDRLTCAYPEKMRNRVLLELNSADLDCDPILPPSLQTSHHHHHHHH
RUN DESCRIPTION: BLI cross-block; competitor (immobilised): IgG1-5T4-085-FEAR
READOUT: corrected association response (nm)
Numbers only, in nm.

BINDER | corrected association response [nm]
IgG1-5T4-H8-FEAR (antibody, V domains shown, Based on 5T4 antibody H8 from Wyeth (WO 2007/106744); IgG1 with L234F, L235E, D265A, K409R (FEAR); also called IgG1-5T4-HS-FEAR; IgG1-5T4-H8-FEAR-FITC) VH: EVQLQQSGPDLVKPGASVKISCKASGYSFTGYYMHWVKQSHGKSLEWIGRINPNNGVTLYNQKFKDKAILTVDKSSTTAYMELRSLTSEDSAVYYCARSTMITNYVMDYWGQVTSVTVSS VL: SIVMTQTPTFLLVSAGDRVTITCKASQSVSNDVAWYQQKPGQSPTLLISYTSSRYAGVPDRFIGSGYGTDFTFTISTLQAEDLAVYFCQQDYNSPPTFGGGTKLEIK | -0.01

Now for another entry.
### Prompt State its corrected association response for this binder: IgG1-5T4-106-FEAR (antibody, V domains shown, Monospecific, bivalent human IgG1 kappa with L234F, L235E, D265A, K409R (FEAR)) VH: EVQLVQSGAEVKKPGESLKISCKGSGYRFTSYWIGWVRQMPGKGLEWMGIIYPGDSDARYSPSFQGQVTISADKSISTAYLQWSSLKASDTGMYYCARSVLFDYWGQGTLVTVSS VL: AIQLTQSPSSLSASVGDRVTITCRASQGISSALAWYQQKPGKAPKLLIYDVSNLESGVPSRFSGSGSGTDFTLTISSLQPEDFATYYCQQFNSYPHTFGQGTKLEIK
### Response -0.01
